- MEASUREMENT_TARGET: FLK-1 receptor (Mus musculus, UniProt P35918)
- Construct: expressed in transfected cells; host or cells: NIH3T3 C7#3 cells
- Sequence (P35918 20-1345): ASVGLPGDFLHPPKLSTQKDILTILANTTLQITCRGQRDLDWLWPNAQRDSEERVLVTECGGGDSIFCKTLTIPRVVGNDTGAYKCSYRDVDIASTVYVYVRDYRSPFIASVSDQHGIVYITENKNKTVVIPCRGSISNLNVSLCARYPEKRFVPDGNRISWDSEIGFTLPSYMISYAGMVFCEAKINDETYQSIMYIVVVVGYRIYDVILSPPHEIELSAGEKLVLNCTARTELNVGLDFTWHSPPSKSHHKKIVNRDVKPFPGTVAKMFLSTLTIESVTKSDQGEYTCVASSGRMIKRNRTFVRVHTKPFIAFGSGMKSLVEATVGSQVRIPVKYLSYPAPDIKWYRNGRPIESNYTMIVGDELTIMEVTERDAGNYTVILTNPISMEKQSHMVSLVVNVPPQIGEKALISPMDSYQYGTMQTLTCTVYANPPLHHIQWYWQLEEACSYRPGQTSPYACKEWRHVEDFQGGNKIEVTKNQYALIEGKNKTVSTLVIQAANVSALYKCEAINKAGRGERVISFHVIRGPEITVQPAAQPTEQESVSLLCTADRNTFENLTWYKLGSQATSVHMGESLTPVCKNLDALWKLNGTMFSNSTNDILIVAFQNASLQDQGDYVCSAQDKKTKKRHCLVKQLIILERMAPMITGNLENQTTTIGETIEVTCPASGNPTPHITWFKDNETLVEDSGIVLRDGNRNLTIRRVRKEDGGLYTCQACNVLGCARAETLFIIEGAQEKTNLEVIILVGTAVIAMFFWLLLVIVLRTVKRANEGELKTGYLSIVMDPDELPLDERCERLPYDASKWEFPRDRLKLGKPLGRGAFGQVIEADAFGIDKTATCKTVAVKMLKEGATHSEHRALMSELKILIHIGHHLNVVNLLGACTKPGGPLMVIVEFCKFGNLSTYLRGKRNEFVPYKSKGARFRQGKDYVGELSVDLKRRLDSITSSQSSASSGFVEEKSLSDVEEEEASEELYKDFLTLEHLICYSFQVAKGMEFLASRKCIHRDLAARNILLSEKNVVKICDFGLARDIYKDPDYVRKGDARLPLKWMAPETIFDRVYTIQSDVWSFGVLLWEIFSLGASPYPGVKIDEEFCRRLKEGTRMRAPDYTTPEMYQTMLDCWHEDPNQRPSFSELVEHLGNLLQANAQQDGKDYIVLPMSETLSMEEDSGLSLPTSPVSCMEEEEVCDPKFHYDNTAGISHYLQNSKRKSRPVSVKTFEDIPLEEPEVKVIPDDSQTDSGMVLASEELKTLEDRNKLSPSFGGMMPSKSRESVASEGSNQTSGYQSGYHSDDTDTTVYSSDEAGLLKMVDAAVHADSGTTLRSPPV
- ASSAY_REMARKS: ELISA assay measuring the kinase activity of the FLK-1 receptor in cells engineered to express FLK-1
- Type: cell-based
- CONDITION_LABEL: FLK-1 expressing NIH3T3 C7#3 cells, VEGF stimulated; compound at 100 μM
Quick reference: inhibition at 100 µM of the listed items.
Provide only the numeric value, understood in %.

Solved entries:
Cc1c(/C=C2\C(=O)Nc3ccccc32)[nH]c2ccccc12 : 26
CC(=O)c1ccc2c(c1)C(=Cc1[nH]c3ccccc3c1C)C(=O)N2 : 10.4
CC(=O)c1ccc2c(c1)C(=Cc1cc3ccccc3[nH]1)C(=O)N2 : 30

// query State the recorded inhibition at 100 µM for this entry: `Cc1cccc2c1/C(=C/c1[nH]c3ccccc3c1C)C(=O)N2`
// result 10.7

// query Another molecule to check: `NS(=O)(=O)c1ccc2c(c1)/C(=C/c1cc3ccccc3[nH]1)C(=O)N2`
// result 23

// query Another molecule to check: `CNS(=O)(=O)c1ccc2c(c1)C(=Cc1[nH]c3ccccc3c1C)C(=O)N2`
// result 11

// query Another molecule to check: `O=C1Nc2ccc(Br)cc2C1=Cc1cc2ccccc2[nH]1`
// result 10

###

Quick reference: IC50 of the listed items.
- MEASUREMENT_TARGET: FLK-1 receptor (Mus musculus, UniProt P35918)
- ASSAY_REMARKS: ELISA assay measuring the kinase activity of the FLK-1 receptor in cells engineered to express FLK-1
- CONDITION_LABEL: FLK-1 expressing NIH3T3 C7#3 cells, VEGF stimulated; cells without % or + sign
- Method: An ELISA assay was conducted to measure the kinase activity of the FLK-1 receptor and more specifically, the inhibition or activation of TK activity on the FLK-1 receptor. Specifically, the following assay was conducted to measure kinase activity of the FLK-1 receptor in cells genetically engineered to express FLK-1. […] 25. […] Remove bubbles with slow stream of air and read the ELISA plate in an ELISA plate reader at 410 nm. The IC50 values were measured for several of the compounds of the invention.

Solved entries:
O=C1Nc2ccc(C(=O)O)cc2/C1=C/c1cc2ccccc2[nH]1 : 2100 nM
Cc1c(/C=C2\C(=O)Nc3ccc(C(=O)O)cc32)[nH]c2ccccc12 : 4200 nM
O=C1Nc2ccc(/N=C/c3cc4ccccc4[nH]3)cc2/C1=C/c1cc2ccccc2[nH]1 : > 100000 nM

// query Checklist item: IC50 tested on FLK-1 receptor (Mus musculus, UniProt P35918), entry `Nc1ccc2c(c1)/C(=C/c1cc3ccccc3[nH]1)C(=O)N2` , value?
// result 1530 nM

###

- MEASUREMENT_TARGET: src protein kinase (Gallus gallus, UniProt P00523)
- ASSAY_REMARKS: Assay measuring SRC protein kinase activity (phosphorylation of a biotinylated peptide)
- CONDITION_LABEL: src from transformed yeast lysate, 5 μM ATP; cells without %
EXPERIMENTAL_READOUT: IC50 (µM)
Provide only the numeric value, understood in µM.

// query Checklist item: IC50 tested on src protein kinase (Gallus gallus, UniProt P00523), entry `Nc1ccc2c(c1)/C(=C/c1cc3ccccc3[nH]1)C(=O)N2` , value?
// result 9

###

Quick reference: inhibition at 100 µM of the listed items.
- MEASUREMENT_TARGET: src protein kinase (Gallus gallus)
- Construct: made in house; host or cells: Schizosaccharomyces pombe strain SP200, pRSP expression plasmids
- ASSAY_REMARKS: Assay measuring SRC protein kinase activity (phosphorylation of a biotinylated peptide)
- Format: biochemical
- CONDITION_LABEL: src from transformed yeast lysate, 5 μM ATP; compound at 100 μM
Provide only the numeric value, understood in %.

Solved entries:
O=C1Nc2ccc(/N=C/c3cc4ccccc4[nH]3)cc2/C1=C/c1cc2ccccc2[nH]1 [IN-020] : 7.62
Cc1c(/C=C2\C(=O)Nc3ccc(Br)cc32)[nH]c2ccccc12 [IN-018] : 19.5
Cc1cccc2c1C(=Cc1cc3ccccc3[nH]1)C(=O)N2 [IN-015] : 16

// query State the recorded inhibition at 100 µM for this entry: O=C1Nc2cc(Cl)ccc2/C1=C/c1cc2ccccc2[nH]1 [IN-011]
// result -38.5

// query Another compound to check: O=C1Nc2ccc(Cl)cc2/C1=C/c1cc2ccccc2[nH]1 [IN-013]
// result -0.6

// query Another compound to check: NS(=O)(=O)c1ccc2c(c1)/C(=C/c1cc3ccccc3[nH]1)C(=O)N2 [IN-008]
// result -11

// query Another compound to check: O=C1Nc2ccc(Br)cc2C1=Cc1cc2ccccc2[nH]1 [IN-014]
// result -2.4

// query Another compound to check: O=C1Nc2ccc(C(=O)O)cc2/C1=C/c1cc2ccccc2[nH]1 [IN-010]
// result 36.4

###

- MEASUREMENT_TARGET: pyk-2 protein kinase (Homo sapiens, UniProt Q14289)
- Construct: made in house; host or cells: Schizosaccharomyces pombe strain SP200, pRSP expression plasmids
- Sequence (Q14289 whole entry): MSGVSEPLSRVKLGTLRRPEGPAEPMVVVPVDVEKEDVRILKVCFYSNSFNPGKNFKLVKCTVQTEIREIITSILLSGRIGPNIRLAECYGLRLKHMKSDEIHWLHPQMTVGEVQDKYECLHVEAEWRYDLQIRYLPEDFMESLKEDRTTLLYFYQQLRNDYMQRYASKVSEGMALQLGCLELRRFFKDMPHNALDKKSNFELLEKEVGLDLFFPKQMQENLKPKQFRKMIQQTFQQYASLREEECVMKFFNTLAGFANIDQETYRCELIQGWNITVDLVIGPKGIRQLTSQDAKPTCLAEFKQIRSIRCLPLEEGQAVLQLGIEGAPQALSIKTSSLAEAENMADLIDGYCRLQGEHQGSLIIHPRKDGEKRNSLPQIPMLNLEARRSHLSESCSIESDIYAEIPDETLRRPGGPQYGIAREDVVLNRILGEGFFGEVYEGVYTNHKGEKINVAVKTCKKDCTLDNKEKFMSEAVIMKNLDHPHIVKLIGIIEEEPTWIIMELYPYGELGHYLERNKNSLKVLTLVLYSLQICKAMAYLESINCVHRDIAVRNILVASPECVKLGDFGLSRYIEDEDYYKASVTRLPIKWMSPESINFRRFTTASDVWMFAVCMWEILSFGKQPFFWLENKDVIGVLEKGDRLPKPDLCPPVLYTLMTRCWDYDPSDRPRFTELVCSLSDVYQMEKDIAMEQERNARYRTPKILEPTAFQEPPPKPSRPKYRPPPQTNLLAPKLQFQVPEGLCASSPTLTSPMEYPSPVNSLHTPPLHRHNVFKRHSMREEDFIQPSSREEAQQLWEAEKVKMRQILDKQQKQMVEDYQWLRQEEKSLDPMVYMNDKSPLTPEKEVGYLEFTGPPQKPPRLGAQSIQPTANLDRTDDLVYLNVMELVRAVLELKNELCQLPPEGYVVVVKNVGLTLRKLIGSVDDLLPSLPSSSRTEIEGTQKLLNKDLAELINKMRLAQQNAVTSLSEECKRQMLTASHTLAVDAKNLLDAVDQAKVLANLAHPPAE
- ASSAY_REMARKS: Assay measuring PYK-2 protein kinase activity (phosphorylation of a biotinylated peptide)
- Assay type: biochemical
- CONDITION_LABEL: pyk-2 from transformed yeast lysate, 5 μM ATP; compound at 100 μM
EXPERIMENTAL_READOUT: inhibition at 100 µM (%)
Provide only the numeric value, understood in %.

Solved entries:
Cc1ccc2c(c1)/C(=C/c1[nH]c3ccccc3c1C)C(=O)N2 : -16
Cc1c(C=C2C(=O)Nc3ccc(S(=O)(=O)N(C)C)cc32)[nH]c2ccccc12 (mixture of isomers) : 44.4
Cc1c(/C=C2\C(=O)Nc3ccc(Br)cc32)[nH]c2ccccc12 : 62
O=C1Nc2ccc(Cl)cc2/C1=C/c1cc2ccccc2[nH]1 : -12
O=C1Nc2ccc(Br)cc2C1=Cc1cc2ccccc2[nH]1 : -14
CNS(=O)(=O)c1ccc2c(c1)C(=Cc1[nH]c3ccccc3c1C)C(=O)N2 : 67.5

Next compound, inhibition at 100 µM to be filled in.
// query Checklist item: inhibition at 100 µM tested on pyk-2 protein kinase (Homo sapiens, UniProt Q14289), entry `Cc1c(/C=C2\C(=O)Nc3ccccc32)[nH]c2ccccc12` , value?
// result -12.5

###

- MEASUREMENT_TARGET: pyk-2 protein kinase (Homo sapiens)
- Construct: made in house; host or cells: Schizosaccharomyces pombe strain SP200, pRSP expression plasmids
- ASSAY_REMARKS: Assay measuring PYK-2 protein kinase activity (phosphorylation of a biotinylated peptide)
- Assay type: biochemical
- CONDITION_LABEL: pyk-2 from transformed yeast lysate, 5 μM ATP; cells without %
Quick reference: IC50 of the listed items.
Answer with the value and then the unit.

Solved entries:
Cc1c(/C=C2\C(=O)Nc3ccc(C(=O)O)cc32)[nH]c2ccccc12 : 220 nM
Nc1ccc2c(c1)/C(=C/c1cc3ccccc3[nH]1)C(=O)N2 : 680 nM
O=C1Nc2ccc(C(=O)O)cc2/C1=C/c1cc2ccccc2[nH]1 : 3400 nM

Next compound, IC50 to be filled in.
// query Checklist item: IC50 tested on pyk-2 protein kinase (Homo sapiens), entry `NS(=O)(=O)c1ccc2c(c1)/C(=C/c1cc3ccccc3[nH]1)C(=O)N2` , value?
// result 9600 nM

###

- MEASUREMENT_TARGET: src protein kinase (Gallus gallus, UniProt P00523)
- Construct: made in house; host or cells: Schizosaccharomyces pombe strain SP200, pRSP expression plasmids
- ASSAY_REMARKS: Assay measuring SRC protein kinase activity (phosphorylation of a biotinylated peptide)
- Format: biochemical
- CONDITION_LABEL: src from transformed yeast lysate, 5 μM ATP; compound at 100 μM
EXPERIMENTAL_READOUT: inhibition at 100 µM (%)
Provide only the numeric value, understood in %.

Solved entries:
Cc1c(/C=C2\C(=O)Nc3ccc(S(N)(=O)=O)cc32)[nH]c2ccccc12 : -3.5
Cc1cccc2c1/C(=C/c1[nH]c3ccccc3c1C)C(=O)N2 : -6.5
Cc1c(/C=C2\C(=O)Nc3ccccc32)[nH]c2ccccc12 : 20.2
CC(=O)c1ccc2c(c1)C(=Cc1cc3ccccc3[nH]1)C(=O)N2 : 12.4
Cc1c(C=C2C(=O)Nc3ccc(S(=O)(=O)N(C)C)cc32)[nH]c2ccccc12 (mixture of isomers) : -4.6

// query State the recorded inhibition at 100 µM for this entry: `O=C1Nc2ccccc2/C1=C/c1cc2ccccc2[nH]1`
// result -12

// query Another compound to check: `Cc1c(/C=C2\C(=O)Nc3ccc(Cl)cc32)[nH]c2ccccc12`
// result 21.4

// query Another compound to check: `Cc1ccc2c(c1)/C(=C/c1[nH]c3ccccc3c1C)C(=O)N2`
// result -62

Origin of measurements: patent US6680335B2
